Source of measurements: patent EP4178959B1

- System: Zea mays seedlings
- test-details: Effect on development of Zea mays seedlings (hydroponic)
- Assay type: in vivo, Zea mays cv. CELLUX
- experimental-conditions: at concentration with highest activity
Catalogue of compounds with associated Root dry mass (%) [4 x 10^-8 mol.l^-1 Kin = 100%]

Read off the recorded Root dry mass (%) [4 x 10^-8 mol.l^-1 Kin = 100%] for COc1cccc(CNc2nc(F)nc3c2ncn3C2CCCO2)c1 (stereo not shown) [Compound 18]
240.6 (± 22) %

For the compound Oc1cc(F)cc(CNc2nc(F)nc3c2ncn3C2CCCO2)c1 (stereo not shown) [Compound 28] , report Root dry mass (%) [4 x 10^-8 mol.l^-1 Kin = 100%].
190.2 (± 20) %

Give me measured Root dry mass (%) [4 x 10^-8 mol.l^-1 Kin = 100%], please, for this compound: Fc1nc(NCc2ccco2)c2ncn(C3CCCCO3)c2n1 (stereo not shown) [Compound 57]
183.9 (± 24) %

Supply recorded Root dry mass (%) [4 x 10^-8 mol.l^-1 Kin = 100%] for CC(CO)CCNc1nc(F)nc2c1ncn2C1CCCCO1 (stereo not shown) [Compound 72] here.
161.3 (± 21) %

Specify measured Root dry mass (%) [4 x 10^-8 mol.l^-1 Kin = 100%] for COc1ccccc1CNc1nc(F)nc2c1ncn2C1CCCO1 (stereo not shown) [Compound 17] .
241.5 (± 19) %

Further cases:
Entry C/C(=C\CO)CNc1nc(F)nc2c1ncn2C1CCCO1 (stereo not shown) [Compound 6] needs its Root dry mass (%) [4 x 10^-8 mol.l^-1 Kin = 100%] filled in; supply it.
167.2 (± 14) %

Annotate the compound Oc1cccc(CNc2nc(F)nc3c2ncn3C2CCCO2)c1 (stereo not shown) [Compound 15] with its measured Root dry mass (%) [4 x 10^-8 mol.l^-1 Kin = 100%].
201.4 (± 22) %
